- measuredOn: GluN2C-containing NMDA receptors (Homo sapiens, UniProt Q14957)
- Sequence (Q14957 20-1233, other chains not shown): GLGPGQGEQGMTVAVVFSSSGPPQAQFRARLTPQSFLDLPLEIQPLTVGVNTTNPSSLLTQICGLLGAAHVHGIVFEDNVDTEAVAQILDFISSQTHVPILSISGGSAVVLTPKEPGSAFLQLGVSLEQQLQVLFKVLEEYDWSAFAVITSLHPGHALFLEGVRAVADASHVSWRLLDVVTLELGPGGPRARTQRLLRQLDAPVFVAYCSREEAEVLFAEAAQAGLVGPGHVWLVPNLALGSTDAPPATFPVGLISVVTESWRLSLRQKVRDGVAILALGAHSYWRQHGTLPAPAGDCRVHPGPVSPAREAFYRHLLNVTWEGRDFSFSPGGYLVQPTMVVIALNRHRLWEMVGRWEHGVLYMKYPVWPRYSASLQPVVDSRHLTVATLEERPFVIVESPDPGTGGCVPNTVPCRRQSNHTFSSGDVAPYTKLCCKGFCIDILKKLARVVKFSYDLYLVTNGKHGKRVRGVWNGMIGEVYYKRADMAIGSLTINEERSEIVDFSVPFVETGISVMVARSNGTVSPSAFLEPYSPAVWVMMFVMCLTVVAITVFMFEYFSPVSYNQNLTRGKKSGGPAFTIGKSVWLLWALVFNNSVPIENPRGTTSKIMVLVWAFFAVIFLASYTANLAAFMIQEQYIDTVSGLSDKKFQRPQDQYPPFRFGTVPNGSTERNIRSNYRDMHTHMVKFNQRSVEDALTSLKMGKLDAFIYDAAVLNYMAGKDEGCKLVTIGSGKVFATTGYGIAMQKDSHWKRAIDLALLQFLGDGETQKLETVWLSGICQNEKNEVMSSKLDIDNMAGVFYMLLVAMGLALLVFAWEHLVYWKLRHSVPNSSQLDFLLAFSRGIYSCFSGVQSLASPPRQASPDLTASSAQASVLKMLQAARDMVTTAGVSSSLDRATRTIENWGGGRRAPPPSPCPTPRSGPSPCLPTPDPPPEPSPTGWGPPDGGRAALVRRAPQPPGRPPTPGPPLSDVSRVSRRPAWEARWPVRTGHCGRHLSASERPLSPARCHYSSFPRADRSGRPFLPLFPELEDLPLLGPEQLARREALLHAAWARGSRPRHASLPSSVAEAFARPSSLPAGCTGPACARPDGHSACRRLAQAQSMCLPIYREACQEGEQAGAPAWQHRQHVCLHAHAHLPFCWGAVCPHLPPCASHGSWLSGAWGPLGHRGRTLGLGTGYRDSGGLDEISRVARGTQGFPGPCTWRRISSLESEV
- testProtocol: Two-electrode voltage-clamp recordings from Xenopus laevis oocytes, GluN2C
- Type: cell-based
- testParameters: Table 1; in brackets after EC50; percent of response without compound
Measured maximal potentiation Glu N2C of individual entries
readout: maximal potentiation Glu N2C (%)

1. Cc1sc2ncn(CC(=O)N3CCCC3)c(=O)c2c1-c1ccc(N=[N+]=[N-])cc1 = 485
2. Cc1ccc(-c2csc3ncn(CC(=O)N4CCCC4)c(=O)c23)cc1 = 597
3. Cc1sc2ncn(CC(=O)N3CCCC3)c(=O)c2c1-c1cccc([N+](=O)[O-])c1 = 1483
4. Cc1sc2ncn(CC(=O)N3CCCC3)c(=O)c2c1-c1cccc(Br)c1 = 568
